Measured target: HLA-A*0206 (human)
Measurement description: MHC binding assay with purified MHC molecules
Measured parameter: pIC50
In plain terms, pIC50 is the concentration in mol/L turned into minus its base-10 logarithm.

For orientation, consider the following solved cases.
# Binder, pIC50
measured = [
    ("TLTSCNTSV (modifications not checked) [TLT(GalNAc-O-S)CNTSV]", 7.62),
    ("ALASAAAAV (modifications not checked)", 6.58),
    ("TLTSCNTSV (modifications not checked)", 7.82),
]

Could you now consider this next binder?
Consider the binder shown here: ALASAAAAV (modifications not checked) [ALA(GALNAc-O-S)SAAAAV] What is its recorded pIC50?
7.09
